System: A549 NSCLC
Protocol summary: NCI tumour cell line growth inhibition, 48 h
Measured parameter: GI50

INPUT: I'd like to know its GI50. The compound in question is C=CC(=O)Nc1cc2c(Nc3ccc(F)c(Cl)c3)ncnc2cc1C#CC(C)(C)N1CCN(C)CC1
OUTPUT: 2.64 µM

INPUT: Another compound to check: CCn1c(-c2nonc2N)nc2cnc(Oc3cccc(NC(=O)c4ccc(N(C)C)cc4)c3)cc21
OUTPUT: 2.12 µM

INPUT: What do we get for COc1ccc2c(c1)C(=O)c1c-2c(OCCN(C)C)nc2cc(OC)c(OC)cc12 ?
OUTPUT: 4.2 µM

INPUT: Here is the next compound: N#[N+]c1ccc(Nc2ccccc2)cc1
OUTPUT: > 50 µg/mL

INPUT: Record: COc1cc(NC2CCCCC2O)c2nc(-c3ccc(Cl)cc3)ccc2c1 (stereo not given)
OUTPUT: 6.05 µM

INPUT: Consider next the compound CC(C)OP(=O)(O)c1ncc(-c2ccc(C(F)(F)F)cc2)c(NC2CCCCCC2)n1 in the same way.
OUTPUT: > 100 µM

INPUT: Entry CN(C)c1ccc(-c2ccc(-c3ccc(C(=N)N)cn3)o2)cc1 please
OUTPUT: 1.89 µM

INPUT: What about this compound? O=CN1N=C(c2cccc(Nc3ccnc4cc(Cl)ccc34)c2)CC1c1ccc(Cl)cc1 (stereo not given)
OUTPUT: 0.941 µM

INPUT: Next compound: C#C[C@]1(O)CC[C@H]2[C@@H]3CC=C4c5nc(N)sc5CC[C@]4(C)[C@H]3CC[C@@]21C
OUTPUT: 4.15 µM

INPUT: What do you get for C[C@@H]1CCc2ncc(F)cc2[C@H]2CCCN2c2ccn3ncc(c3n2)C(=O)N1 ?
OUTPUT: 69.3 µM
